target: 5-hydroxytryptamine receptor 4 (Cavia porcellus); test: Concentration of compound required to inhibit the binding of radioligand [3H]GR-113808 to 5-hydroxytryptamine 4 receptor in guinea-pig striatum; format: tissue-based
Sequence (O70528 whole entry): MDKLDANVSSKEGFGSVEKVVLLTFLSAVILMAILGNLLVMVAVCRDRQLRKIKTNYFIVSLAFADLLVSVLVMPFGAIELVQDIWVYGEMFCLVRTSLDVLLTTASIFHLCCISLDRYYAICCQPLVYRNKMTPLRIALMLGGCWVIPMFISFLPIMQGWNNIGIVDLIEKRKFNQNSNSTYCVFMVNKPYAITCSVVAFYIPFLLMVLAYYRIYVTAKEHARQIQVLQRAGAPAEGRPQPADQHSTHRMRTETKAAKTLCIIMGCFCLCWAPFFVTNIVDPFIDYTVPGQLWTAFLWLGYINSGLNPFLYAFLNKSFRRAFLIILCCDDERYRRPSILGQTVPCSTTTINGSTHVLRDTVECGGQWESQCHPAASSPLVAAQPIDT
pIC50: −log10 of the molar value.
experimental endpoint: pIC50

## Input Report measured pIC50; entry is `CCN1CCN(C)C[C@H](NC(=O)c2cc(Br)c(NC)nc2OC)C1`
## Output < 6.00

* * *

system: Canis familiaris; experiment: Percent inhibition of apomorphine (0.3 mg/kg) induced emesis in dogs when 1 mg/kg of compound administered perorally; format: functional; details: Canis lupus familiaris, route oral
experimental endpoint: inhibition in vivo at 1 mg/kg (%)
Report only the number, with the unit % understood.

| compound | inhibition in vivo at 1 mg/kg / % |
| --- | --- |
| CCNc1nc(OC)c(C(=O)NC2CN(C)CCN(CC)C2)cc1Cl (stereo not drawn) | 42 |
| CNc1nc(OC)c(C(=O)NC2CN(C)CCN(C3CC3)C2)cc1Br (stereo not drawn) | 14 |
| CCN1CCN(C)C[C@@H](NC(=O)c2cc(Cl)c(NC)cc2OC)C1 | 100 |
| CCN1CCN(C)CC(NC(=O)c2cc(Br)c(N(C)C)nc2OC)C1 (stereo not drawn) | 83 |
| CCN1CCN(C)C[C@@H](NC(=O)c2cc(Cl)c(NC)nc2OC)C1 | 52 |

## Input Report measured inhibition in vivo at 1 mg/kg; entry is `CNc1nc(OC)c(C(=O)NC2CN(C)CCN(C)C2)cc1Cl`
## Output 20

## Input Report measured inhibition in vivo at 1 mg/kg; entry is CCOc1nc(NC)c(Cl)cc1C(=O)NC1CN(C)CCN(CC)C1 (stereo not drawn)
## Output 40
